// provenance: paper PMC11631053

Molecular target: UniProtKB P59536
Sequence (P59536 whole entry): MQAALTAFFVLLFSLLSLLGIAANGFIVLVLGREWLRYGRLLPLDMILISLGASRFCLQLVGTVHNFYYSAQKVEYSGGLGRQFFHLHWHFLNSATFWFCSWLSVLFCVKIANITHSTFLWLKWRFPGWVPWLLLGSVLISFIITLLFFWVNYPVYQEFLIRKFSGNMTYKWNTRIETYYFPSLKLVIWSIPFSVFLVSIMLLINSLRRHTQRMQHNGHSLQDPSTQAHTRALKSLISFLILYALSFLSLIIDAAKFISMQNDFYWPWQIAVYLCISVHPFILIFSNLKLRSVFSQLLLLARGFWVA
Test: Calcium mobilization assay, HEK293T-Gα16gust44 cells expressing TAS2R41
Details: maximal concentration tested: sucralose 100 mM, neotame 30 µM, Ace-K 300 mM, RebA 4 mM, RebM 4 mM, mogroside V 5 mM, erythritol 200 mM, D-allulose 500 mM, thaumatin 100 mM
Quantity name: Response of TAS2R41

Observe how each entry below is paired with its result.
Compound	Quantity name	Assay value
O=C(CO)[C@H](O)[C@H](O)[C@H](O)CO	Response of TAS2R41	−
C=C1C[C@@]23CC[C@H]4[C@@](C)(CCC[C@@]4(C)C(=O)O[C@@H]4O[C@H](CO)[C@@H](O)[C@H](O[C@@H]5O[C@H](CO)[C@@H](O)[C@H](O)[C@H]5O)[C@H]4O[C@@H]4O[C@H](CO)[C@@H](O)[C@H](O)[C@H]4O)[C@@H]2CC[C@]1(O[C@@H]1O[C@H](CO)[C@@H](O)[C@H](O[C@@H]2O[C@H](CO)[C@@H](O)[C@H](O)[C@H]2O)[C@H]1O[C@@H]1O[C@H](CO)[C@@H](O)[C@H](O)[C@H]1O)C3 [RebM, Rebaudioside M]	Response of TAS2R41	−
CC1=CC(=O)NS(=O)(=O)O1	Response of TAS2R41	−
OC[C@H]1O[C@H](O[C@]2(CCl)O[C@H](CCl)[C@@H](O)[C@@H]2O)[C@H](O)[C@@H](O)[C@H]1Cl	Response of TAS2R41	−
OC[C@@H](O)[C@@H](O)CO	Response of TAS2R41	−

Task: For the compound shown here, C[C@H](CC[C@@H](O[C@@H]1O[C@H](CO[C@@H]2O[C@H](CO)[C@@H](O)[C@H](O)[C@H]2O)[C@@H](O)[C@H](O)[C@H]1O[C@@H]1O[C@H](CO)[C@@H](O)[C@H](O)[C@H]1O)C(C)(C)O)[C@H]1CC[C@@]2(C)[C@@H]3CC=C4[C@@H](CC[C@H](O[C@@H]5O[C@H](CO[C@@H]6O[C@H](CO)[C@@H](O)[C@H](O)[C@H]6O)[C@@H](O)[C@H](O)[C@H]5O)C4(C)C)[C@]3(C)[C@H](O)C[C@]12C [Mogroside V, mogroside V] , give the reported Response of TAS2R41.
Result: −

Task: For the compound shown here, COC(=O)[C@H](Cc1ccccc1)NC(=O)[C@H](CC(=O)O)NCCC(C)(C)C , give the reported Response of TAS2R41.
Result: −

###

Biological target: UniProt:Q9NYW1
Sequence (Q9NYW1 1-312): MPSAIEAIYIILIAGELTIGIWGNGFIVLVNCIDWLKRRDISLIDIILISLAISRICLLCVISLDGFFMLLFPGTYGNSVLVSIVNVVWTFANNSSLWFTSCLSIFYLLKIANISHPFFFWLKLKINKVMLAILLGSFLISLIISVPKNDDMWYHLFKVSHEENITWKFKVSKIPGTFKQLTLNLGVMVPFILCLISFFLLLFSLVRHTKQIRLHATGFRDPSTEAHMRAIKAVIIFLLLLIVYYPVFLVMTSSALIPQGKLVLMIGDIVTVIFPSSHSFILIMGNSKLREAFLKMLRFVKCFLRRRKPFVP
Experiment: Calcium mobilization assay, HEK293T-Gα16gust44 cells expressing TAS2R9
Conditions: maximal concentration tested: sucralose 100 mM, neotame 30 µM, Ace-K 300 mM, RebA 4 mM, RebM 4 mM, mogroside V 5 mM, erythritol 200 mM, D-allulose 500 mM, thaumatin 100 mM

Compound	Response of TAS2R9
C[C@H](CC[C@@H](O[C@@H]1O[C@H](CO[C@@H]2O[C@H](CO)[C@@H](O)[C@H](O)[C@H]2O)[C@@H](O)[C@H](O)[C@H]1O[C@@H]1O[C@H](CO)[C@@H](O)[C@H](O)[C@H]1O)C(C)(C)O)[C@H]1CC[C@@]2(C)[C@@H]3CC=C4[C@@H](CC[C@H](O[C@@H]5O[C@H](CO[C@@H]6O[C@H](CO)[C@@H](O)[C@H](O)[C@H]6O)[C@@H](O)[C@H](O)[C@H]5O)C4(C)C)[C@]3(C)[C@H](O)C[C@]12C [Mogroside V, mogroside V]	−
C=C1C[C@@]23CC[C@H]4[C@@](C)(CCC[C@@]4(C)C(=O)O[C@@H]4O[C@H](CO)[C@@H](O)[C@H](O[C@@H]5O[C@H](CO)[C@@H](O)[C@H](O)[C@H]5O)[C@H]4O[C@@H]4O[C@H](CO)[C@@H](O)[C@H](O)[C@H]4O)[C@@H]2CC[C@]1(O[C@@H]1O[C@H](CO)[C@@H](O)[C@H](O[C@@H]2O[C@H](CO)[C@@H](O)[C@H](O)[C@H]2O)[C@H]1O[C@@H]1O[C@H](CO)[C@@H](O)[C@H](O)[C@H]1O)C3 [RebM, Rebaudioside M]	−
OC[C@@H](O)[C@@H](O)CO	−

###

Biological target: TAS2R16 (Homo sapiens)
Sequence (Q9NYV7 whole entry): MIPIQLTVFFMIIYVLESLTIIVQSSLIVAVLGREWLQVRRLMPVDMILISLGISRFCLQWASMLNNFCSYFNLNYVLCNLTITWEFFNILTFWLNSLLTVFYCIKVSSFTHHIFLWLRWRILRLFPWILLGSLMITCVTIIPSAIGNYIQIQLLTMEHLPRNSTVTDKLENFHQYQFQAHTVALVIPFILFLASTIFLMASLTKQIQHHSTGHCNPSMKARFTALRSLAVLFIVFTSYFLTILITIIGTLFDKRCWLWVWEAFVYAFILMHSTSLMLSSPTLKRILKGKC
Experiment: Calcium mobilization assay, HEK293T-Gα16gust44 cells expressing TAS2R16
Conditions: maximal concentration tested: sucralose 100 mM, neotame 30 µM, Ace-K 300 mM, RebA 4 mM, RebM 4 mM, mogroside V 5 mM, erythritol 200 mM, D-allulose 500 mM, thaumatin 100 mM
Quantity name: Response of TAS2R16

Observe how each entry below is paired with its result.
Compound	Response of TAS2R16
COC(=O)[C@H](Cc1ccccc1)NC(=O)[C@H](CC(=O)O)NCCC(C)(C)C	−
OC[C@@H](O)[C@@H](O)CO	−
C=C1C[C@@]23CC[C@H]4[C@@](C)(CCC[C@@]4(C)C(=O)O[C@@H]4O[C@H](CO)[C@@H](O)[C@H](O[C@@H]5O[C@H](CO)[C@@H](O)[C@H](O)[C@H]5O)[C@H]4O[C@@H]4O[C@H](CO)[C@@H](O)[C@H](O)[C@H]4O)[C@@H]2CC[C@]1(O[C@@H]1O[C@H](CO)[C@@H](O)[C@H](O[C@@H]2O[C@H](CO)[C@@H](O)[C@H](O)[C@H]2O)[C@H]1O[C@@H]1O[C@H](CO)[C@@H](O)[C@H](O)[C@H]1O)C3 [RebM, Rebaudioside M]	−
OC[C@H]1O[C@H](O[C@]2(CCl)O[C@H](CCl)[C@@H](O)[C@@H]2O)[C@H](O)[C@@H](O)[C@H]1Cl	−
O=C(CO)[C@H](O)[C@H](O)[C@H](O)CO	+
CC1=CC(=O)NS(=O)(=O)O1	−

Here is another compound to look at.
Task: For the compound shown here, C[C@H](CC[C@@H](O[C@@H]1O[C@H](CO[C@@H]2O[C@H](CO)[C@@H](O)[C@H](O)[C@H]2O)[C@@H](O)[C@H](O)[C@H]1O[C@@H]1O[C@H](CO)[C@@H](O)[C@H](O)[C@H]1O)C(C)(C)O)[C@H]1CC[C@@]2(C)[C@@H]3CC=C4[C@@H](CC[C@H](O[C@@H]5O[C@H](CO[C@@H]6O[C@H](CO)[C@@H](O)[C@H](O)[C@H]6O)[C@@H](O)[C@H](O)[C@H]5O)C4(C)C)[C@]3(C)[C@H](O)C[C@]12C [Mogroside V, mogroside V] , give the reported Response of TAS2R16.
Result: +

###

Target: TAS2R14 (Homo sapiens)
Sequence (Q9NYV8 1-317): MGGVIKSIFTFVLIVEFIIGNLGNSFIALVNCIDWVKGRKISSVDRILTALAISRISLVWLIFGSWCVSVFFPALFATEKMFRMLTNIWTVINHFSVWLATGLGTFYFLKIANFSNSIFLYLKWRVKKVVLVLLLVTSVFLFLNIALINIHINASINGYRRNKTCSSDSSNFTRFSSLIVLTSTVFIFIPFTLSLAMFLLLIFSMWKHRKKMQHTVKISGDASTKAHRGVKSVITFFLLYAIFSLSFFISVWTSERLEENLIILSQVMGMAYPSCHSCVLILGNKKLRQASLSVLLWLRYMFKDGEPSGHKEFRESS
Test: Calcium mobilization assay, HEK293T-Gα16gust44 cells expressing TAS2R14
Conditions: maximal concentration tested: sucralose 100 mM, neotame 30 µM, Ace-K 300 mM, RebA 4 mM, RebM 4 mM, mogroside V 5 mM, erythritol 200 mM, D-allulose 500 mM, thaumatin 100 mM
Quantity name: Response of TAS2R14

Observe how each entry below is paired with its result.
Compound	Study system	Assay value
C=C1C[C@@]23CC[C@H]4[C@@](C)(CCC[C@@]4(C)C(=O)O[C@@H]4O[C@H](CO)[C@@H](O)[C@H](O[C@@H]5O[C@H](CO)[C@@H](O)[C@H](O)[C@H]5O)[C@H]4O[C@@H]4O[C@H](CO)[C@@H](O)[C@H](O)[C@H]4O)[C@@H]2CC[C@]1(O[C@@H]1O[C@H](CO)[C@@H](O)[C@H](O[C@@H]2O[C@H](CO)[C@@H](O)[C@H](O)[C@H]2O)[C@H]1O[C@@H]1O[C@H](CO)[C@@H](O)[C@H](O)[C@H]1O)C3 [RebM, Rebaudioside M]	TAS2R14 (Homo sapiens)	−
CC1=CC(=O)NS(=O)(=O)O1	TAS2R14 (Homo sapiens)	−
COC(=O)[C@H](Cc1ccccc1)NC(=O)[C@H](CC(=O)O)NCCC(C)(C)C	TAS2R14 (Homo sapiens)	−
C[C@H](CC[C@@H](O[C@@H]1O[C@H](CO[C@@H]2O[C@H](CO)[C@@H](O)[C@H](O)[C@H]2O)[C@@H](O)[C@H](O)[C@H]1O[C@@H]1O[C@H](CO)[C@@H](O)[C@H](O)[C@H]1O)C(C)(C)O)[C@H]1CC[C@@]2(C)[C@@H]3CC=C4[C@@H](CC[C@H](O[C@@H]5O[C@H](CO[C@@H]6O[C@H](CO)[C@@H](O)[C@H](O)[C@H]6O)[C@@H](O)[C@H](O)[C@H]5O)C4(C)C)[C@]3(C)[C@H](O)C[C@]12C [Mogroside V, mogroside V]	TAS2R14 (Homo sapiens)	−
OC[C@@H](O)[C@@H](O)CO	TAS2R14 (Homo sapiens)	−
O=C(CO)[C@H](O)[C@H](O)[C@H](O)CO	TAS2R14 (Homo sapiens)	+

Here is another compound to look at.
Task: For the compound shown here, OC[C@H]1O[C@H](O[C@]2(CCl)O[C@H](CCl)[C@@H](O)[C@@H]2O)[C@H](O)[C@@H](O)[C@H]1Cl , give the reported Response of TAS2R14.
Result: −
